# measured-on: HDAC3 (Homo sapiens (Human), UniProt O15379)
# Sequence (O15379 whole entry): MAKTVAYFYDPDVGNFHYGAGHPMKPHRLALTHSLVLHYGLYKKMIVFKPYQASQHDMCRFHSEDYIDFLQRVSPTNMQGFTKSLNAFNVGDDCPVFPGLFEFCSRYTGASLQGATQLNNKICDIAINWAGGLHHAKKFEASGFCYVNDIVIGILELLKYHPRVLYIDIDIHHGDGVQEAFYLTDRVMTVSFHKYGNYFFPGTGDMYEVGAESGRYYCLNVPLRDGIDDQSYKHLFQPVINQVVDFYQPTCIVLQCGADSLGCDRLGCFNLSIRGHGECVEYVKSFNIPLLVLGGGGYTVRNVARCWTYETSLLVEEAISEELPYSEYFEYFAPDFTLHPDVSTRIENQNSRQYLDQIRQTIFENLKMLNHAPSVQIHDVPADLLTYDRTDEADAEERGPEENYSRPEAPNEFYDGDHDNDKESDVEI
# Sequence (Q9Y618 395-489 partner): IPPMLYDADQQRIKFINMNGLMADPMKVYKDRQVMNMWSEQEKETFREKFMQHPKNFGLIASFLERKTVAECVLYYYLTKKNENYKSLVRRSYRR
# experiment-notes: HDAC enzyme assay, HDAC3
# conditions: read-out: HDAC3 IC50
pIC50: −log10 of the molar value.
endpoint-label: pIC50

// known answers, use as guide
- O=C(NO)c1cnc(NCCc2c[nH]c3ccccc23)nc1: 6.97
- O=C(NO)c1cnc(NCc2cccnc2)nc1: 6.76
- O=C(NO)c1cnc(NC(c2ccccc2)c2ccccc2)nc1: 6.63

P. O=C(NO)c1cnc(NC2(c3cc(C(F)(F)F)ccc3F)CC2)nc1
Q. O=C(NO)c1cnc(NC2(c3ccc(Cl)c(Cl)c3)CC2)nc1
Q: Of the pair P and Q , name the member with the lesser recorded pIC50. Your answer should be the label attached to the chosen record.
A: Q
